- Measurement Description: resazurin metabolic signal in A549 cells – cell-based, resazurin fluorescence, 24 h, PK04 Diversity Set, profiling panel (AID 1171); note: test concentration not given here
- Setup Conditions: A549 viability, higher = more signal, called active from +8 up or from −8 down
The source made the active and inactive calls.
Some compounds, each annotated with its measured z-score.

Below, 8 compounds whose answers are already recorded.
| Compound | z-score |
| --- | --- |
| O=C1C2C=CC(C(O)c3cccc4ccccc34)N(Nc3ccccc3)C2C(=O)N1c1ccccc1 (stereo not given) | -0.854 (inactive) |
| COC(=O)[C@@]1(Cc2ccc(OC)cc2)[C@H]2c3cc(C(=O)N(C)C)n(Cc4cc(C)n(C)n4)c3C[C@H]2CN1C(=O)c1ccccc1 | -1.9 (inactive) |
| CCCN1C(=O)[C@@]2(Cc3ccccc3)N=C(c3ccc(OCCCO)cc3)O[C@H]2c2ccccc21 | -0.232 (inactive) |
| CC(C)(C)N1CC=CC23O[C@@H]4C=CCCOC(=O)C4[C@H]2C(=O)N(CCCO)[C@@H]3C1=O (stereo not given in full) | -1.22 (inactive) |
| C=CCOC(=O)[C@@H]1[C@H]2C(=O)O[C@H](c3ccccc3)[C@H](c3ccccc3)N2[C@H](c2ccc(OCCOC(=O)[C@@H]3C[C@@H]4C(=O)N[C@@H](CCCCNC(C)=O)C(=O)N4[C@@H]3c3ccc(O)cc3)cc2)[C@@]12C(=O)Nc1ccc(I)cc12 | 0.873 (inactive) |
| COC(=O)[C@]1(Cc2ccccc2CN=[N+]=[N-])N=C(c2ccc(OCCCO)cc2)O[C@@H]1c1ccccc1CN=[N+]=[N-] | -3.05 (inactive) |
| CN1C(=O)C2C=CC(C(O)c3ccc(F)cc3)N(N3CCCCC3)C2C1=O (stereo not given) | -0.707 (inactive) |
| C=C(COC)C(=O)CC[C@H](OC(=O)c1ccccc1-c1ccccc1C(=O)O)c1ccc(CO)o1 | -0.256 (inactive) |

Problem: Could you tell me which z-score is on file for `COCCOC(=O)N1C(=O)[C@@]2(c3cc(C#CCCO)ccc31)[C@H](C(=O)N1CCc3cc(OC)c(OC)cc3C1)[C@H]1C(=O)O[C@H](c3ccccc3)[C@H](c3ccccc3)N1[C@@H]2c1ccc(OCCO)cc1` ?
Solution: 0.86 (inactive)

Problem: Could you tell me which z-score is on file for CC(C)=CCCC(C)=CC(O)C1C=CC2C(=O)N(c3ccccc3)C(=O)C2N1Nc1ccc([N+](=O)[O-])cc1 (stereo not given) ?
Solution: -0.214 (inactive)

###

- Tested On: Fibroblast growth factor 2 (Homo sapiens)
- Measurement Description: basic fibroblast growth factor binding to printed compounds – biochemical, small-molecule microarray, 635/667 nm fluorescence, primary screen (AID 1133)
- Setup Conditions: FGF2, fluorescence 635/667, higher = more signal
Readout: composite z-score
The response must contain the number and no unit.

Below, 4 compounds whose answers are already recorded.
| Molecular String | Meas Value |
| --- | --- |
| COc1ccc([Si](C)(C)[C@@H]2[C@@H](CCO)O[C@]3(C(=O)N(Cc4ccccc4)c4ccc(N5CCCCC5=O)cc43)[C@H]2C)cc1 | 0.634 |
| COC(=O)[C@H]1N=C(c2ccc(OCCCO)cc2)O[C@H]1c1ccccc1CN=[N+]=[N-] | -0.372 |
| CCC[C@@H]1C[C@@]1(CCC)[C@@H](NC(=O)c1cccs1)c1ccc(Cl)cc1 | -0.639 |
| COC(=O)[C@@]1(Cc2ccccc2)[C@H]2c3cc(C(=O)N4CCCC4)n(Cc4ccc(OC(F)(F)F)cc4)c3C[C@H]2CN1C(=O)c1ccccc1 | -0.65 |

Problem: Could you tell me which composite z-score is on file for `O=C1O[C@H](c2ccccc2)[C@H](c2ccccc2)N2[C@H]1[C@@H](C(=O)N1CCN(c3ncccn3)CC1)[C@]1(C(=O)Nc3ccc(C#CCCO)cc31)[C@H]2c1ccccc1OCCO` ?
Solution: 1.29

Problem: Could you tell me which composite z-score is on file for `COCCOC(=O)N1C(=O)[C@@]2(c3ccccc31)[C@H](c1ccc(OCCO)cc1)N1[C@H](c3ccccc3)[C@H](c3ccccc3)OC(=O)[C@H]1[C@@H]2C(=O)NC[C@H](O)c1ccccc1` ?
Solution: 1.03

Problem: Could you tell me which composite z-score is on file for `C[C@@]1([C@@H](NC(=O)c2cccs2)c2ccc(-c3ccccc3)cc2)C[C@H]1C1CCCCC1` ?
Solution: -1.48
